Reference source for all entries: the kinase profiling compilation of Christmann-Franck et al. (2016)

Biological target: PAK7 (human)
Test: KINOMEscan competition binding
Conditions: compound 10.0 µM
measurement kind: kinase still bound, per cent of control
Answer by giving the amount and then stating its unit.

1. Cn1cc(C2=C(c3ccc(Cl)cc3Cl)C(=O)NC2=O)c2ccccc21; 75%

Would you mind listing kinase still bound, per cent of control for each of the following compounds?
1. O=C1Nc2cc(Br)ccc2/C1=C1/Nc2ccccc2/C1=N\O
2. Cc1cnc(-c2cnc(NCCNc3ccc(C#N)cn3)nc2-c2ccc(Cl)cc2Cl)[nH]1
3. COc1ccc(CNC(=O)Nc2ncc([N+](=O)[O-])s2)cc1

a:
1: 17%; 2: 100%; 3: 96%

---

Molecular target: PIK3C2B (human) (UniProt O00750)
Sequence (O00750 whole entry, looked up): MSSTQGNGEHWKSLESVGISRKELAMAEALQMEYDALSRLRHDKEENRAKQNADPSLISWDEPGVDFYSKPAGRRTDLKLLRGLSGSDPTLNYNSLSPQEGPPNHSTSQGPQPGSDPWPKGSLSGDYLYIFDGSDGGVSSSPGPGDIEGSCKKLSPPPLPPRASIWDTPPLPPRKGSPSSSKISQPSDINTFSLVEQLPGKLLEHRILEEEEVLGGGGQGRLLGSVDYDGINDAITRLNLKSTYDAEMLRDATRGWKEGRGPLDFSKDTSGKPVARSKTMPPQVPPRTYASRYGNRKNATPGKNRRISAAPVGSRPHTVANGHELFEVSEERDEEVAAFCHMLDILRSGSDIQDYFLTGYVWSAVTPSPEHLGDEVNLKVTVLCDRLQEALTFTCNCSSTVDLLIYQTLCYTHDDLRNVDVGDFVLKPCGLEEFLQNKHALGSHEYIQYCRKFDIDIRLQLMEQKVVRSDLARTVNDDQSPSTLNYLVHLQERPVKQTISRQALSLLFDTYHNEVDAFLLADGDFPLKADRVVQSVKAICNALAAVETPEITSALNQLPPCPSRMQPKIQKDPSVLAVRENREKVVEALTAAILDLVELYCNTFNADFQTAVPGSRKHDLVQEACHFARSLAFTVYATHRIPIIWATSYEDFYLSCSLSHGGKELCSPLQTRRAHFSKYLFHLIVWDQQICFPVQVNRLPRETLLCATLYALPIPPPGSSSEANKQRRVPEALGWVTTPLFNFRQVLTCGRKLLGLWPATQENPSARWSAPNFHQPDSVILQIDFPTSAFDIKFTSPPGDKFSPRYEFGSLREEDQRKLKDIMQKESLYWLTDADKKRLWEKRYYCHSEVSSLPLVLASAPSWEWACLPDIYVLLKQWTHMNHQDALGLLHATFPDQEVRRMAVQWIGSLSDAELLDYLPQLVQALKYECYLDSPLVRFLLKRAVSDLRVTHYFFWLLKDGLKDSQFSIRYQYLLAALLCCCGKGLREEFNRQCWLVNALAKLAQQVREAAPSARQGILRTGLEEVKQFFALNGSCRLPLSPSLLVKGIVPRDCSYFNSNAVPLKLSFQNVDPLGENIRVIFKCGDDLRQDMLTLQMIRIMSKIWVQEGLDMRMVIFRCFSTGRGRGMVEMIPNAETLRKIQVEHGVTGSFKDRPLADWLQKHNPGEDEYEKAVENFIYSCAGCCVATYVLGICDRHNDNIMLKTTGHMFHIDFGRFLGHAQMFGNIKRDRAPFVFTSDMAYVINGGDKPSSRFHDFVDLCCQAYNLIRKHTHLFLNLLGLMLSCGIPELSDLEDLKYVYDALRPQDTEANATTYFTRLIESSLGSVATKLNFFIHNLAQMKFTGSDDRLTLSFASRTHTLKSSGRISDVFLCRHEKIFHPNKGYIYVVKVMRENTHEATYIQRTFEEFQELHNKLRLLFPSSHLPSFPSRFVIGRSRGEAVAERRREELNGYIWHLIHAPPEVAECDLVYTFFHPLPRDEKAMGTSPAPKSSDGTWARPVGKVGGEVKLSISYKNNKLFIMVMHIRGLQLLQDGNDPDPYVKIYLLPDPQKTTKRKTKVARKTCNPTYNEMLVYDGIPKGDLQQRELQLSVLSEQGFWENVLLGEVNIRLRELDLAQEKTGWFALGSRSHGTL
Test: KINOMEscan competition binding
Conditions: compound 10.0 µM
Task for the reader: assign each of the following molecules its reported kinase still bound, per cent of control.
Answer by giving the amount and then stating its unit.

Would you mind listing kinase still bound, per cent of control for each of the following molecules?
1. O=C1Nc2cc(Br)ccc2/C1=C1/Nc2ccccc2/C1=N\O
2. COc1ccc(CNC(=O)Nc2ncc([N+](=O)[O-])s2)cc1
3. Cc1cnc(-c2cnc(NCCNc3ccc(C#N)cn3)nc2-c2ccc(Cl)cc2Cl)[nH]1
4. Cn1cc(C2=C(c3ccc(Cl)cc3Cl)C(=O)NC2=O)c2ccccc21

a:
["100%", "94%", "91%", "100%"]

---

Target: PRKD1 (human) (UniProt Q15139)
Sequence (Q15139 whole entry, looked up): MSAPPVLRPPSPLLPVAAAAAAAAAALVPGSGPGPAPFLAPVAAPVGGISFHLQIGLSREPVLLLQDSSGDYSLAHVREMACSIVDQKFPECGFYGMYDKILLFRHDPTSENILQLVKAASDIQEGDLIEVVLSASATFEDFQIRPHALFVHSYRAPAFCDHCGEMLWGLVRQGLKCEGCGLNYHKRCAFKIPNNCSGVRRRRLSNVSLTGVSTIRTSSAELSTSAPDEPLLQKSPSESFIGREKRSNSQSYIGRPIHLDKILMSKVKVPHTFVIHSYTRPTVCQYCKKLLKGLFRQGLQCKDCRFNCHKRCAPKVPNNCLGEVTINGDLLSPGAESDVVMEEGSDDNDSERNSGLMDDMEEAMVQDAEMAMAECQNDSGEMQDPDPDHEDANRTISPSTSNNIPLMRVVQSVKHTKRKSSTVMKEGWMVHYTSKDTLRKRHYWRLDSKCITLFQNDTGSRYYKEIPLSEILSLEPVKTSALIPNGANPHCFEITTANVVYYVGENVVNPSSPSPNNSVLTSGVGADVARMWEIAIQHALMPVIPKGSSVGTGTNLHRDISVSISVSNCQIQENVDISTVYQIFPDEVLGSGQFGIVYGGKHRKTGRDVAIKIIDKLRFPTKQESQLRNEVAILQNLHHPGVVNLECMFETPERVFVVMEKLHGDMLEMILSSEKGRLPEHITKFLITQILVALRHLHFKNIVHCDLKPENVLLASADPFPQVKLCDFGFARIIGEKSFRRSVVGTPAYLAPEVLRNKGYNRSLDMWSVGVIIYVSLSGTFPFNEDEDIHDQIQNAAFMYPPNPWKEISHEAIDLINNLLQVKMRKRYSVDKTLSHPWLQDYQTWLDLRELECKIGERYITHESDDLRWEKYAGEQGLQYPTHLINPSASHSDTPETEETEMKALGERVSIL
Experiment: KINOMEscan competition binding
Conditions: compound 10.0 µM
Task for the reader: assign each of the following compounds its reported kinase still bound, per cent of control.
Answer by giving the amount and then stating its unit.

Guide cases for kinase still bound, per cent of control, answers given:
1) Cc1cnc(-c2cnc(NCCNc3ccc(C#N)cn3)nc2-c2ccc(Cl)cc2Cl)[nH]1; 100%
2) Cn1cc(C2=C(c3ccc(Cl)cc3Cl)C(=O)NC2=O)c2ccccc21; 100%
3) O=C1Nc2cc(Br)ccc2/C1=C1/Nc2ccccc2/C1=N\O; 100%

q: Checklist item: kinase still bound, per cent of control tested on PRKD1 (human) (UniProt Q15139), entry COc1ccc(CNC(=O)Nc2ncc([N+](=O)[O-])s2)cc1 , value?
a: 69%

---

Task for the reader: assign each of the following compounds its reported kinase still bound, per cent of control.
Biological target: EPHB1 (human) (UniProt P54762)
Sequence (P54762 whole entry, looked up): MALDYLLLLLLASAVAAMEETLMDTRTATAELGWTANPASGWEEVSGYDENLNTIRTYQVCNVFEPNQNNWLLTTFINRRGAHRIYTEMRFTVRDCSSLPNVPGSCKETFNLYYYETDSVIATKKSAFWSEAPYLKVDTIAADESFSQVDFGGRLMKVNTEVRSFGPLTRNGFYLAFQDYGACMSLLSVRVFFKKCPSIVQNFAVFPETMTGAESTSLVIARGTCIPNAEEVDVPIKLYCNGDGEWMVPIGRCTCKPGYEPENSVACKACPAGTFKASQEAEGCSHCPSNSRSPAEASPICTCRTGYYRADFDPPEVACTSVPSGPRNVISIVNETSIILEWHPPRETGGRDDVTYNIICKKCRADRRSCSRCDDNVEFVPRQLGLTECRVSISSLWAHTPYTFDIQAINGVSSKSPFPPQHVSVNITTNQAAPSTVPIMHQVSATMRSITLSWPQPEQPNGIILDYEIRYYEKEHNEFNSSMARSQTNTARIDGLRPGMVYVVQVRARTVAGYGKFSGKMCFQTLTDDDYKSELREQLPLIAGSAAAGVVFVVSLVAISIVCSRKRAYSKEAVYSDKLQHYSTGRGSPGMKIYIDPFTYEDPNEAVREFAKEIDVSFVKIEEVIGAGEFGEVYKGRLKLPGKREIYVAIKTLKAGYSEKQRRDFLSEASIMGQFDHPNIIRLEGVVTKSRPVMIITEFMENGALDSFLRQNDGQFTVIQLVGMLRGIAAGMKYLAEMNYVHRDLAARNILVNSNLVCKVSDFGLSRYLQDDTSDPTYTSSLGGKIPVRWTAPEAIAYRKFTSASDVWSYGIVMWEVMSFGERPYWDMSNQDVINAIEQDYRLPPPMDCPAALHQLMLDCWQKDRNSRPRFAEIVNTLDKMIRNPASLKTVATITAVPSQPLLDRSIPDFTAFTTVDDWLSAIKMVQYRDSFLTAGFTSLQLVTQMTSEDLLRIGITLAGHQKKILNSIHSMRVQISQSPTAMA
Assay: KINOMEscan competition binding
Details: compound 10.0 µM
Give bare numbers, in %.

Guide cases for kinase still bound, per cent of control, answers given:
1. Cn1cc(C2=C(c3ccc(Cl)cc3Cl)C(=O)NC2=O)c2ccccc21; 91
2. Cc1cnc(-c2cnc(NCCNc3ccc(C#N)cn3)nc2-c2ccc(Cl)cc2Cl)[nH]1; 96
3. COc1ccc(CNC(=O)Nc2ncc([N+](=O)[O-])s2)cc1; 85

Then there is this compound:
q: Query: kinase still bound, per cent of control; subject: O=C1Nc2cc(Br)ccc2/C1=C1/Nc2ccccc2/C1=N\O
a: 43

---

Target: UniProt:P21802
Sequence (P21802 whole entry, looked up): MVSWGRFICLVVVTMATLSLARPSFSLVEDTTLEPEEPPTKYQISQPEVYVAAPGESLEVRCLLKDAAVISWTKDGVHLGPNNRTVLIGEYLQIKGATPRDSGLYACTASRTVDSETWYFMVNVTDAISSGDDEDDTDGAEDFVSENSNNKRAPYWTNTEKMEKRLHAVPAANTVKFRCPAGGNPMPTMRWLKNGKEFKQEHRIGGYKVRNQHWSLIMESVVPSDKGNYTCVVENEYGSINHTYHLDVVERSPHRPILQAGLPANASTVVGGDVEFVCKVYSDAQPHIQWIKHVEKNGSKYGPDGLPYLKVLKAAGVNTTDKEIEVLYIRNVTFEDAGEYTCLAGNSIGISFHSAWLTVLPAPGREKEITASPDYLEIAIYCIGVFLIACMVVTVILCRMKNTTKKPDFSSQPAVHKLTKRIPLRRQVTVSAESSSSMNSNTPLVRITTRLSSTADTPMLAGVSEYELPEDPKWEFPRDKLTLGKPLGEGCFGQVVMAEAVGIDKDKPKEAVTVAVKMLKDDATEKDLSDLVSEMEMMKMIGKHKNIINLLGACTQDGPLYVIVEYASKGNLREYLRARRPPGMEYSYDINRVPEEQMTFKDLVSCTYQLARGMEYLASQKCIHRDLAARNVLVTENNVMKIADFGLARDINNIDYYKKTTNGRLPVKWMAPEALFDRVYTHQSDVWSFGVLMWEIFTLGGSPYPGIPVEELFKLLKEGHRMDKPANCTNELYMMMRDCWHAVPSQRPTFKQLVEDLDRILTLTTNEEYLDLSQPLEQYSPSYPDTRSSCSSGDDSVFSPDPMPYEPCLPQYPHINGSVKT
Assay: KINOMEscan competition binding
Conditions: compound 10.0 µM
Task for the reader: assign each of the following molecules its reported kinase still bound, per cent of control.
Numbers only, in %.

Guide cases for kinase still bound, per cent of control, answers given:
1. COc1ccc(CNC(=O)Nc2ncc([N+](=O)[O-])s2)cc1; 81
2. Cc1cnc(-c2cnc(NCCNc3ccc(C#N)cn3)nc2-c2ccc(Cl)cc2Cl)[nH]1; 98

Would you mind listing kinase still bound, per cent of control for each of the following molecules?
1. Cn1cc(C2=C(c3ccc(Cl)cc3Cl)C(=O)NC2=O)c2ccccc21
2. O=C1Nc2cc(Br)ccc2/C1=C1/Nc2ccccc2/C1=N\O

a:
100
15
